Listed compounds paired with reported inhibition of SARS-CoV-2 cytopathic effect
Test system: Vero E6 infected with SARS-CoV-2
Experiment: inhibition of SARS-CoV-2 cytopathic effect; higher = more antiviral protection, active = above 15
Details: 8.33 nM; 48 h
Use % as the unit, but write only the number.

QUERY: State, in one line, measured inhibition of SARS-CoV-2 cytopathic effect of NCCc1c[nH]c2ccc(O)cc12 [serotonin]
RESULT: -0.57

QUERY: Identify measured inhibition of SARS-CoV-2 cytopathic effect associated with C=C[C@H]1CN2CC[C@H]1C[C@H]2[C@H](O)c1ccnc2ccccc12 [cinchonidine]
RESULT: 2.44

* * *

System: Vero E6 infected with SARS-CoV-2
Assay: SARS-CoV-2 infection rate relative to infected DMSO; higher = more infection, active = 60 or less
Details: 24 h
Measured SARS-CoV-2 infection rate, listed per entry.
Lab book: enter the figure in %, no units written.

1) Cc1ccccc1-c1cc(N2CCN(C)CC2)ncc1N(C)C(=O)C(C)(C)c1cc(C(F)(F)F)cc(C(F)(F)F)c1 [netupitant] (10 µM) | 94
2) N#Cc1c(N(CC(=O)O)CC(=O)O)sc(C(=O)O)c1CC(=O)O [Strontium Ranelate] (10 µM) | 107

QUERY: Provide one value: measured SARS-CoV-2 infection rate of NC1CCN(c2cccc(Cl)n2)CC1 (10 µM)
RESULT: 108

QUERY: Identify measured SARS-CoV-2 infection rate corresponding to Cc1cccc(C)c1NC(=O)C1CCCCN1C (centres undefined) [mepivacaine] (10 µM)
RESULT: 97.5

QUERY: Specify measured SARS-CoV-2 infection rate for CC1Cc2ccccc2N1NC(=O)c1ccc(Cl)c(S(N)(=O)=O)c1 (centres undefined) [indapamide] (10 µM) .
RESULT: 112

QUERY: // fetch SARS-CoV-2 infection rate given entry NCCc1c[nH]c2ccc(C(N)=O)cc12 [5-carboxamidotryptamine] (10 µM)
RESULT: 103

QUERY: For the molecule S=P(N1CC1)(N1CC1)N1CC1 [thiotepa] (10 µM) , report SARS-CoV-2 infection rate.
RESULT: 96

QUERY: Determine its reported SARS-CoV-2 infection rate: O=C(N[C@H](CO)[C@H](O)c1ccc([N+](=O)[O-])cc1)C(Cl)Cl [chloramphenicol] (10 µM)
RESULT: 117

QUERY: Identify measured SARS-CoV-2 infection rate associated with CN1C(=O)C(Cc2c[nH]c3ccccc23)NC1=S (centres undefined) [necrostatin-1] (10 µM)
RESULT: 93.5

* * *

Tested on: Vero E6 infected with SARS-CoV-2
Experiment: SARS-CoV-2 infection rate relative to infected DMSO; higher = more infection, active = 60 or less
Conditions: 24 h
// SARS-CoV-2 infection rate lookup, one value per entry
Report the value in % with no unit label.

// solved cases for SARS-CoV-2 infection rate follow
1. COCCc1ccc(OCC(O)CNC(C)C)cc1 (configuration not stated) [metoprolol] (10 µM) | 101
2. c1ccc(N2CCN(CCCOc3ccc4c(c3)OCO4)CC2)cc1 (10 µM) | 101
3. COc1cc(N)c(Cl)cc1C(=O)CCC1CCN(CCNS(C)(=O)=O)CC1 (10 µM) | 97.5
4. CCC[S+]([O-])c1ccc2[nH]c(NC(=O)OC)nc2c1 (configuration not stated) [albendazole-oxide] (10 µM) | 110
5. Cc1ccccc1C(OCCN(C)C)c1ccccc1 (configuration not stated) [orphenadrine] (10 µM) | 87
6. CC(C)=CCC/C(C)=C/CC/C(C)=C/C=C/C(C)=C/C(=O)O [peretinoin] (10 µM) | 108
7. CCS(=O)(=O)N1CCN(c2ccc(Nc3ncc(C(N)=O)c(NC4CC4)n3)cc2)CC1 (10 µM) | 123
8. C[C@H]1COc2c(C3(N)CC3)c(F)cc3c(=O)c(C(=O)O)cn1c23 [pazufloxacin] (10 µM) | 103

QUERY: Give SARS-CoV-2 infection rate for COc1cc(N2CCC(O)CC2)ccc1Nc1cc(Nc2ccccc2S(=O)(=O)C(C)C)c2cc[nH]c2n1 (0.833333 µM)
RESULT: 106

QUERY: Give the reported value of SARS-CoV-2 infection rate for this record: C[C@@H]1NC(C)(C)CO[C@@]1(O)c1cccc(Cl)c1 [radafaxine] (10 µM)
RESULT: 110

QUERY: Query SARS-CoV-2 infection rate for CC(C)[C@H](CO)Nc1nc(Nc2cc(N)cc(Cl)c2)c2ncn(C(C)C)c2n1 [aminopurvalanol-a] (0.833333 µM)
RESULT: 108

QUERY: Could you please provide reported SARS-CoV-2 infection rate for CC(C)N(C[C@H]1O[C@@H](n2cnc3c(N)ncnc32)[C@H](O)[C@@H]1O)[C@H]1C[C@@H](CCc2nc3cc(C(C)(C)C)ccc3[nH]2)C1 (10 µM) ? Thanks!
RESULT: 110

* * *

Tested on: Vero E6 infected with SARS-CoV-2
Assay: inhibition of SARS-CoV-2 cytopathic effect; higher = more antiviral protection, active = above 15
Conditions: 1 nM; 48 h
Measurement Kind: inhibition of SARS-CoV-2 cytopathic effect (%)
Express the result in % but write the number alone.

Some compounds with recorded inhibition of SARS-CoV-2 cytopathic effect:
1) CN(CCOc1ccc(NS(C)(=O)=O)cc1)CCc1ccc(NS(C)(=O)=O)cc1 [dofetilide] | -2.98
2) CCC(=O)NS(=O)(=O)c1ccc(-c2c(-c3ccccc3)noc2C)cc1 | -0.31

QUERY: // fetch inhibition of SARS-CoV-2 cytopathic effect for N#Cc1cc2c(OCC(O)CN3CCN(C(c4ccccc4)c4ccccc4)CC3)cccc2[nH]1 (stereo not drawn) ; system: Vero E6 infected with SARS-CoV-2
RESULT: 0.5

QUERY: Please respond with reported inhibition of SARS-CoV-2 cytopathic effect (system Vero E6 infected with SARS-CoV-2) for "CC(=O)N[C@@H](CC(=O)O)C(=O)N[C@@H](CCC(=O)O)C(=O)O" .
RESULT: -1.79

QUERY: State, for Vero E6 infected with SARS-CoV-2, measured inhibition of SARS-CoV-2 cytopathic effect of the compound listed here: CCCCCCCCCC(=O)O[C@H]1CC[C@H]2[C@@H]3CCC4=CC(=O)CC[C@@H]4[C@H]3CC[C@]12C [Nandrolone decanoate]
RESULT: 0.16

* * *

System: Vero E6 infected with SARS-CoV-2
Assay: SARS-CoV-2 infection rate relative to infected DMSO; higher = more infection, active = 60 or less
Settings: 24 h
Measurement Kind: SARS-CoV-2 infection rate (%)
Write the value in % as a bare number.

Recorded results for 3 molecules are shown here.
1) O=C(CCc1ccc(O)cc1)c1c(O)cc(O)cc1O[C@@H]1O[C@H](CO)[C@@H](O)[C@H](O)[C@H]1O [phlorizin] (10 µM) | 112
2) CC(C)(C)NCC(O)CSc1nc(-c2ccc(C(N)=O)s2)cs1 (configuration not stated) [arotinolol] (10 µM) | 106
3) COC(=O)Nc1ccc(-c2nc(N3CCOCC3)c3cnn(C4CCN(Cc5cccnc5)CC4)c3n2)cc1 (10 µM) | 104

QUERY: State, in one line, measured SARS-CoV-2 infection rate of CO/N=C(\C(=O)N[C@@H]1C(=O)N2C(C(=O)[O-])=C(C[n+]3ccn4ncccc43)CS[C@H]12)c1nsc(N)n1 [cefozopran] (10 µM)
RESULT: 112

QUERY: Note SARS-CoV-2 infection rate for the molecule shown: OCCN1CCN(CCCN2c3ccccc3C=Cc3ccccc32)CC1 [opipramol] (10 µM)
RESULT: 102

QUERY: State its SARS-CoV-2 infection rate for this molecule: CC(=O)Nc1ccccc1 [acetanilide] (10 µM)
RESULT: 102

QUERY: Quick one: give measured SARS-CoV-2 infection rate for N#Cc1ccc(N(Cc2ccc(Br)cc2)n2cnnc2)cc1 (10 µM)
RESULT: 102

* * *

Listing: inhibition of SARS-CoV-2 cytopathic effect of selected compounds
Tested on: Vero E6 infected with SARS-CoV-2
Experiment: inhibition of SARS-CoV-2 cytopathic effect; higher = more antiviral protection, active = above 15
Details: 100 nM; 48 h
Hi! Could you send only the number? It should be in %, unit omitted.

Consider the reported inhibition of SARS-CoV-2 cytopathic effect for these compounds:
1) CN1CCN(c2nc3ccccc3nc2Cl)CC1 | -3.46
2) CCOC(=O)Nc1ccc2c(c1)N(C(=O)CN(CC)CC)c1ccccc1CC2 | 1.77
3) Cc1ccc(/C=C2/C(=O)C3(C)CCC2C3(C)C)cc1 (stereo unspecified) | 2.26
4) CCCCCCCCCCCC1=C(O)C(=O)C=C(O)C1=O | -1.48

QUERY: Answer with the recorded inhibition of SARS-CoV-2 cytopathic effect for the compound listed here: "NC(=O)c1[nH]cnc1O"
RESULT: 0.2

QUERY: Quick one: give measured inhibition of SARS-CoV-2 cytopathic effect for "O=C1Nc2ccc(I)cc2C1=Cc1cc(Br)c(O)c(Br)c1"
RESULT: 1.54
